assay: Inhibition of beta-lactamase L1 (unknown origin) expressed in Escherichia coli BL21(DE3) using nitrocefin as substrate by measuring substrate hydrolysis at 100 uM preincubated for 30 mins by spectrophotometric analysis
The source made the active and inactive calls. The calls are words filed in the database; no cut-off is given here.
ENDPOINT: inhibition

Some molecules with recorded inhibition:
Exam item: Requested field: inhibition. Item: S=c1[nH]nc(-c2cccc(Cl)c2)n1/N=C/c1ccc(OCc2ccccc2)cc1
Marked response: 60%

Exam item: Moving on to Cc1ccccc1-c1n[nH]c(=S)n1/N=C/c1cnc[nH]1
Marked response: inactive

Exam item: How about O=C(O)c1cccc(-c2cccc(/C=N/n3c(-c4ccc5ccccc5c4)n[nH]c3=S)c2)c1 ?
Marked response: 45%

Exam item: Try this molecule too: O=C(O)c1ccccc1/C=N/n1c(COc2ccc3ccccc3c2)n[nH]c1=S
Marked response: 60%

Exam item: Now try S=c1[nH]nc(-c2cc3ccccc3[nH]2)n1/N=C/c1ccc(OCc2ccccc2)cc1 .
Marked response: inactive

Exam item: Similarly, Cc1ccccc1-c1n[nH]c(=S)n1/N=C/c1ccc(C(=O)O)cc1 ?
Marked response: 59%

Exam item: Now consider Oc1ccc(/C=N/n2c(COc3ccc4ccccc4c3)n[nH]c2=S)c(O)c1 and answer again.
Marked response: 40%

Exam item: How about this molecule: S=c1[nH]nc(Cc2ccc3ccccc3c2)n1/N=C/c1ccc(OCc2ccccc2)cc1
Marked response: inactive

More entries:
Exam item: Name the reported inhibition value associated with the molecule Cc1ccccc1-c1n[nH]c(=S)n1/N=C/c1ccccc1C#N
Marked response: inactive

Exam item: // same read-out, input: S=c1[nH]nc(-c2ccc(-c3ccccc3)cc2)n1/N=C/c1ccc(OCc2ccccc2)cc1
Marked response: inactive

Exam item: Now consider S=c1[nH]nc(Cc2ccccc2)n1/N=C/c1ccc(OCc2ccccc2)cc1 .
Marked response: 31%

Exam item: Same read-out for S=c1[nH]nc(-c2ccc(OCc3ccccc3)cc2)n1/N=C/c1ccc(OCc2ccccc2)cc1 ?
Marked response: inactive

Exam item: Please answer likewise for Oc1ccc(/C=N/n2c(Cc3ccc4ccccc4c3)n[nH]c2=S)c(O)c1
Marked response: inactive

Exam item: Param item: O=C(O)c1ccccc1/C=N/n1c(Cc2ccccc2)n[nH]c1=S
Marked response: 59%

Exam item: Now give it for Cc1ccccc1-c1n[nH]c(=S)n1/N=C/c1ccccc1O too.
Marked response: inactive

Exam item: Again, but for Oc1ccc(/C=N/n2c(-c3cc(Cl)cc(Cl)c3)n[nH]c2=S)c(O)c1
Marked response: 40%

Exam item: Consider next the molecule Cc1ccccc1-c1n[nH]c(=S)n1/N=C/c1ccc([N+](=O)[O-])cc1 in the same way.
Marked response: 56%
